Just for reference, PubChem BioAssay (EPA / NIEHS) is where these values come from.

Read-out: Nuclear factor erythroid 2-related factor 2 (Homo sapiens)
Test: LTEA_HepaRG_NFE2L2: Life Technologies and Expression Analysis (LTEA) Assay for Nuclear factor erythroid 2-related factor 2 (NFE2L2) Transcription Factor using HepaRG (AID 2283527)
Conditions: mRNA level, 48 h; actives raise or lower the signal
Calls of active or inactive are those of the source. Rule for the calls: active = hit-call score of the fitted dose curve at least 0.9, where 1 is the maximum; inactive = score below 0.9.
Outcomes: active, inactive

{"columns": ["compound", "answer.label"],
 "data": [
  ["CC[C@H](C)C(=O)O[C@H]1C[C@H](O)C=C2C=C[C@H](C)[C@H](CC[C@@H](O)C[C@@H](O)CC(=O)O)[C@H]21", "inactive"],
  ["O=S1(=O)CCCO1", "inactive"],
  ["Cc1ccc(S(=O)(=O)NC(=O)NN2CCCCCC2)cc1", "inactive"],
  ["CC(C)CC(C)O (centres undefined)", "inactive"],
  ["CCCCCCOC(=O)CC(CC(=O)OCCCCCC)(OC(=O)CCC)C(=O)OCCCCCC", "inactive"],
  ["NC(N)=O", "inactive"],
  ["O=C(O)c1cccc(C(=O)O)c1", "inactive"],
  ["CCOc1ccc2[nH]cc(C(=O)NCc3ccccc3)c(=O)c2n1", "inactive"],
  ["Cc1nc(-c2ccccn2)ncc1C(=O)Nn1cc(C)c2cc(F)ccc21", "inactive"],
  ["CCCCCOC(C)=O", "inactive"],
  ["CCCCCCCC/C=C\\CCCCCCCC(=O)OC[C@@H](O)[C@H]1OC[C@H](O)[C@H]1O", "inactive"],
  ["c1ccc2c(c1)-c1cccc3c1c-2cc1ccccc13", "inactive"],
  ["NC(=O)N(O)[C@@H]1COc2cc(OCc3ccccc3)ccc21", "inactive"],
  ["OC[C@H]1O[C@@](CO)(O[C@H]2O[C@H](CO)[C@@H](O)[C@H](O)[C@H]2O)[C@@H](O)[C@@H]1O", "inactive"],
  ["CCCCN1C(=O)[C@@H]([C@H](O)C2CCCCC2)NC(=O)C12CCN(Cc1ccc(Oc3ccc(C(=O)O)cc3)cc1)CC2", "active"],
  ["CCCCOC(=O)c1ccccc1", "inactive"],
  ["CCCC(CCC)C(=O)O", "inactive"],
  ["O=C(NO)C1(NS(=O)(=O)c2ccc(Oc3ccc(F)cc3)cc2)CCOCC1", "inactive"],
  ["O=C(O)[C@H](O)[C@@H](O)C(=O)O", "inactive"],
  ["COCc1nnc(-c2ccc[n+]([O-])c2)n1-c1c(Cl)c(Cl)cc2[nH]c(=O)c(=O)[nH]c12", "inactive"],
  ["O=c1[nH]cnc2c1ncn2[C@H]1CC[C@@H](CO)O1", "inactive"],
  ["OCCOCCOCCO", "inactive"],
  ["O=C(O)c1cccc(C[C@@H]2COc3ccc(OCc4nc5cc(F)ccc5s4)cc3[C@@H]2O)c1", "inactive"],
  ["C=CN1CCCC1=O", "inactive"]
]}

* * *

Read-out: ABC Transporter (ABCC3), ABCC3 (gene 8714)
Experiment: LTEA_HepaRG_ABCC3: Life Technologies and Expression Analysis (LTEA) Assay for ABC Transporter (ABCC3) using HepaRG (AID 2283462)
Details: mRNA level, 48 h; actives raise or lower the signal
Calls of active or inactive are those of the source. Rule for the calls: active = hit-call score of the fitted dose curve at least 0.9, where 1 is the maximum; inactive = score below 0.9.
Outcomes: active, inactive

{"columns": ["molecule.smiles", "answer.label"],
 "data": [
  ["C[C@]12C=CC(=O)C=C1CC[C@H]1[C@@H]3C[C@@H](O)[C@](O)(C(=O)CO)[C@@]3(C)C[C@H](O)[C@@]12F", "inactive"],
  ["Cc1nccn1-c1ccc(Sc2cccc(C3(C(N)=O)CCOCC3)c2)cc1", "active"],
  ["NC(=O)N(O)[C@@H]1COc2cc(OCc3ccccc3)ccc21", "inactive"],
  ["CCOC(N)=O", "inactive"],
  ["Cc1nc(-c2ccccn2)ncc1C(=O)Nn1cc(C)c2cc(F)ccc21", "inactive"],
  ["CCCCCCCCCCCCCCCCOS(=O)(=O)O", "inactive"],
  ["CCCC(CCC)C(=O)O", "inactive"]
]}

* * *

Assay: BSK_3C_Proliferation: Cell Proliferation Assessment in the BioMAP Diversity Plus: 3C Assay (AID 2283006)
Conditions: primary human endothelial cells (HUVEC)
The source made the active and inactive calls. How the source made its calls: active means hit-call score of the fitted dose curve at least 0.9, where 1 is the maximum; inactive means score below 0.9.
Outcomes: YES (active), NO (inactive)

{"columns": ["molecule", "answer.label"],
 "data": [
  ["c1ccc2cc3ccccc3cc2c1", "NO"],
  ["C[Si](C)(C)C(F)(F)C(F)(F)C(F)(F)F", "NO"],
  ["C[C@]12C=CC(=O)C=C1CC[C@H]1[C@@H]3C[C@@H](O)[C@](O)(C(=O)CO)[C@@]3(C)C[C@H](O)[C@@]12F", "NO"],
  ["CCCC(CCC)C(=O)O", "NO"],
  ["CCCCC(CC)C(=O)OCCOCCOCCOC(=O)C(CC)CCCC (stereo unspecified)", "NO"],
  ["S=P(N1CC1)(N1CC1)N1CC1", "YES"]
]}

* * *

Experiment: ATG_TAL_CIS: Attagene CIS-FACTORIAL HepG2 Assay for human TAL Basal Promoter (AID 2282966);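 note: background control endpoint measuring basal TAL promoter reporter mRNA not a specific factor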
Conditions: HepG2 Attagene cis-factorial TAL promoter reporter; actives raise or lower the signal
Active and inactive are the calls of the source. How the source made its calls: active means hit-call score of the fitted dose curve at least 0.9, where 1 is the maximum; inactive means score below 0.9.
Outcomes: active, inactive

{"columns": ["molecule.smiles", "answer.label"],
 "data": [
  ["NNC(=O)c1ccncc1", "inactive"],
  ["Cn1cc[nH]c1=S", "inactive"],
  ["C[C@]12C=CC(=O)C=C1CC[C@H]1[C@@H]3C[C@@H](O)[C@](O)(C(=O)CO)[C@@]3(C)C[C@H](O)[C@@]12F", "inactive"],
  ["OCC(CO)(CO)CO", "inactive"],
  ["NC(=O)N1c2ccccc2C=Cc2ccccc21", "inactive"],
  ["OC[C@H]1O[C@@H]2O[C@H]3[C@H](O)[C@@H](O)[C@@H](O[C@H]4[C@H](O)[C@@H](O)[C@@H](O[C@H]5[C@H](O)[C@@H](O)[C@@H](O[C@H]6[C@H](O)[C@@H](O)[C@@H](O[C@H]7[C@H](O)[C@@H](O)[C@@H](O[C@H]1[C@H](O)[C@H]2O)O[C@@H]7CO)O[C@@H]6CO)O[C@@H]5CO)O[C@@H]4CO)O[C@@H]3CO", "inactive"],
  ["CCCCCCCCCC", "inactive"],
  ["CCCCN1C(=O)[C@@H]([C@H](O)C2CCCCC2)NC(=O)C12CCN(Cc1ccc(Oc3ccc(C(=O)O)cc3)cc1)CC2", "active"],
  ["OC(Cn1cncn1)(Cn1cncn1)c1ccc(F)cc1F", "inactive"],
  ["CCc1ccc(O)c(C(C)(C)C)c1", "inactive"],
  ["O=S(=O)(O)CCC(F)(F)C(F)(F)C(F)(F)C(F)(F)C(F)(F)C(F)(F)F", "inactive"],
  ["CCCC(CCC)C(=O)O", "inactive"],
  ["c1ccc2cc3ccccc3cc2c1", "inactive"],
  ["FC(F)(F)C(F)(F)C(F)(F)C(F)(F)C(F)(F)C(F)(F)I", "inactive"],
  ["CC[C@H](C)C(=O)O[C@H]1C[C@H](O)C=C2C=C[C@H](C)[C@H](CC[C@@H](O)C[C@@H](O)CC(=O)O)[C@H]21", "inactive"],
  ["O=C(N[C@H](CO)[C@H](O)c1ccc([N+](=O)[O-])cc1)C(Cl)Cl", "inactive"],
  ["NC(=O)NN=Cc1ccc([N+](=O)[O-])o1", "inactive"],
  ["CC(C)c1nnc2ccc(-c3ocnc3-c3cc(F)ccc3F)cn12", "inactive"],
  ["CCCCCCCCCCCCCCO", "active"],
  ["CCCCCCCCCCCCCCCCOS(=O)(=O)O", "inactive"],
  ["O=C(Cl)C(F)(F)C(F)(F)C(F)(F)C(=O)Cl", "inactive"],
  ["CCCCCCOC(=O)CC(CC(=O)OCCCCCC)(OC(=O)CCC)C(=O)OCCCCCC", "inactive"]
]}

* * *

Assay: CEETOX_H295R_11DCORT: CeeTox H295R High-throughput Steroidogenesis Assay for 11-Deoxycortisol (11DCORT) (AID 2283432)
Details: actives raise or lower the signal
Procedure: CEETOX_H295R is a cell-based, multiplexed-readout assay that uses H295R, a human adrenal gland cell line, with measurements taken at 48 hours after chemical dosing in a 96-well plate.CEETOX_H295R_11DCORT is one of 23 assay component(s) measured or calculated from the CEETOX_H295R assay. […] This assay endpoint, CEETOX_H295R_11DCORT, was analyzed with bidirectional fitting relative to DMSO as the negative control and baseline of activity. […]
The source made the active and inactive calls. The calls were made as follows: active = hit-call score of the fitted dose curve at least 0.9, where 1 is the maximum; inactive = score below 0.9.
Outcomes: 1 (yes) = active, 0 (no) = inactive

{"columns": ["molecule", "answer.label"],
 "data": [
  ["COc1cc2c(c(OC)c1OC)-c1ccc(OC)c(=O)cc1[C@@H](NC(C)=O)CC2", "0 (no)"],
  ["Nc1ccn([C@@H]2O[C@H](CO)[C@@H](O)[C@@H]2O)c(=O)n1", "0 (no)"],
  ["CCCCCCCCN(C)C", "0 (no)"],
  ["CC(C)c1nnc2ccc(-c3ocnc3-c3cc(F)ccc3F)cn12", "0 (no)"],
  ["CCn1nc(C)c2c1C(=O)NCC(c1ccc(O)cc1)=N2", "0 (no)"],
  ["C[C@]12C=CC(=O)C=C1CC[C@H]1[C@@H]3C[C@@H](O)[C@](O)(C(=O)CO)[C@@]3(C)C[C@H](O)[C@@]12F", "0 (no)"],
  ["c1ccc2c(c1)-c1cccc3c1c-2cc1ccccc13", "1 (yes)"],
  ["CCCCC(CC)C(=O)OCCOCCOCCOC(=O)C(CC)CCCC (centres undefined)", "0 (no)"],
  ["C[C@@H](Oc1ccc(CNC(=O)c2cccnc2Oc2ccc3c(c2)OCO3)c(F)c1)C(=O)O", "0 (no)"]
]}
